Numbers sourced from paper PMC11649739.

format: in vivo, human; conditions: human, plasma, oral, AUC_d1, Mean, 250 mg group: 750 mg on day 1 and 250 mg on days 2–5; day 1
quantity measured: AUC (µg·h/mL)

In [3]: df
Out[3]:
                                   compound  quantity_measured  value_measured
0  Cn1cnc(Cn2c(=O)[nH]/c(=N\c3cc4cn(C)nc4cc3Cl)n(Cc3cc(F)c(F)cc3F)c2=O)n1 [ensitrelvir]                AUC             910

====

format: in vivo, human; details: human, plasma, oral, C24_d1, Median, 125 mg group: 375 mg on day 1 and 125 mg on days 2–5; 24 h postdose on day 1
quantity measured: concentration at 24 h (ng/mL)

In [3]: df
Out[3]:
                                   molecule  value_measured
0  Cn1cnc(Cn2c(=O)[nH]/c(=N\c3cc4cn(C)nc4cc3Cl)n(Cc3cc(F)c(F)cc3F)c2=O)n1           16500

====

assay type: in vivo, human; conditions: human, plasma, oral, AUC_d1, Mean, 125 mg group: 375 mg on day 1 and 125 mg on days 2–5; day 1
quantity measured: AUC (µg·h/mL)

In [3]: df
Out[3]:
                                   molecule  quantity_measured  endpoint_unit  value_measured
0  Cn1cnc(Cn2c(=O)[nH]/c(=N\c3cc4cn(C)nc4cc3Cl)n(Cc3cc(F)c(F)cc3F)c2=O)n1                AUC        µg·h/mL             438

====

format: in vivo, human; details: human, plasma, oral, Entire AUC, Mean, 250 mg group: 750 mg on day 1 and 250 mg on days 2–5
quantity measured: AUC (µg·h/mL)

In [3]: df
Out[3]:
                                   compound  value_measured
0  Cn1cnc(Cn2c(=O)[nH]/c(=N\c3cc4cn(C)nc4cc3Cl)n(Cc3cc(F)c(F)cc3F)c2=O)n1 [ensitrelvir]            5430

====

assay type: in vivo, human; details: human, plasma, oral, Entire AUC, Mean, 125 mg group: 375 mg on day 1 and 125 mg on days 2–5
quantity measured: AUC

>>> df
                                   molecule  value_measured
0  Cn1cnc(Cn2c(=O)[nH]/c(=N\c3cc4cn(C)nc4cc3Cl)n(Cc3cc(F)c(F)cc3F)c2=O)n1    2570 µg·h/mL

====

assay type: in vivo, human; details: human, plasma, oral, C24_d5, Median, 125 mg group: 375 mg on day 1 and 125 mg on days 2–5; 24 h postdose on day 5
quantity measured: concentration at 24 h

>>> print(df.to_string())
                                   molecule      quantity_measured  value_measured
0  Cn1cnc(Cn2c(=O)[nH]/c(=N\c3cc4cn(C)nc4cc3Cl)n(Cc3cc(F)c(F)cc3F)c2=O)n1  concentration at 24 h     19200 ng/mL

====

assay type: in vivo, human; details: human, plasma, oral, C24_d5, Maximum, 125 mg group: 375 mg on day 1 and 125 mg on days 2–5; 24 h postdose on day 5
quantity measured: concentration at 24 h (ng/mL)

                                   molecule      quantity_measured  value_measured
0  Cn1cnc(Cn2c(=O)[nH]/c(=N\c3cc4cn(C)nc4cc3Cl)n(Cc3cc(F)c(F)cc3F)c2=O)n1 [ensitrelvir]  concentration at 24 h           35200

====

assay type: in vivo, human; conditions: human, plasma, oral, Entire Cmax, Median, 250 mg group: 750 mg on day 1 and 250 mg on days 2–5
quantity measured: Cmax (µg/mL)

>>> print(df.to_string())
                                   molecule  quantity_measured  value_measured
0  Cn1cnc(Cn2c(=O)[nH]/c(=N\c3cc4cn(C)nc4cc3Cl)n(Cc3cc(F)c(F)cc3F)c2=O)n1               Cmax            55.1

====

assay type: in vivo, human; conditions: human, plasma, oral, Entire Cmax, Mean, 250 mg group: 750 mg on day 1 and 250 mg on days 2–5
quantity measured: Cmax

In [3]: df
Out[3]:
                                   molecule  value_measured
0  Cn1cnc(Cn2c(=O)[nH]/c(=N\c3cc4cn(C)nc4cc3Cl)n(Cc3cc(F)c(F)cc3F)c2=O)n1      56.4 µg/mL

====

format: in vivo, human; details: human, plasma, oral, C24_d1, Minimum, 125 mg group: 375 mg on day 1 and 125 mg on days 2–5; 24 h postdose on day 1
quantity measured: concentration at 24 h (ng/mL)

In [3]: df
Out[3]:
                                   molecule  value_measured
0  Cn1cnc(Cn2c(=O)[nH]/c(=N\c3cc4cn(C)nc4cc3Cl)n(Cc3cc(F)c(F)cc3F)c2=O)n1            8430

====

assay type: in vivo, human; details: human, plasma, oral, AUC_d5, Mean, 125 mg group: 375 mg on day 1 and 125 mg on days 2–5; day 5
quantity measured: AUC (µg·h/mL)

In [3]: df
Out[3]:
                                   molecule  value_measured
0  Cn1cnc(Cn2c(=O)[nH]/c(=N\c3cc4cn(C)nc4cc3Cl)n(Cc3cc(F)c(F)cc3F)c2=O)n1             578

====

type: in vivo, human; settings: human, plasma, oral, C24_d1, Median, 250 mg group: 750 mg on day 1 and 250 mg on days 2–5; 24 h postdose on day 1
quantity measured: concentration at 24 h (ng/mL)

In [3]: df
Out[3]:
                                   molecule      quantity_measured  value_measured
0  Cn1cnc(Cn2c(=O)[nH]/c(=N\c3cc4cn(C)nc4cc3Cl)n(Cc3cc(F)c(F)cc3F)c2=O)n1  concentration at 24 h           34200

====

format: in vivo, human; settings: human, plasma, oral, C24_d1, Maximum, 125 mg group: 375 mg on day 1 and 125 mg on days 2–5; 24 h postdose on day 1
quantity measured: concentration at 24 h (ng/mL)

>>> print(df.to_string())
                                   molecule  value_measured
0  Cn1cnc(Cn2c(=O)[nH]/c(=N\c3cc4cn(C)nc4cc3Cl)n(Cc3cc(F)c(F)cc3F)c2=O)n1 [ensitrelvir]           27600

====

type: in vivo, human; details: human, plasma, oral, C24_d5, Minimum, 125 mg group: 375 mg on day 1 and 125 mg on days 2–5; 24 h postdose on day 5
quantity measured: concentration at 24 h

                                   molecule      quantity_measured  value_measured
0  Cn1cnc(Cn2c(=O)[nH]/c(=N\c3cc4cn(C)nc4cc3Cl)n(Cc3cc(F)c(F)cc3F)c2=O)n1  concentration at 24 h     10500 ng/mL

====

type: in vivo, human; conditions: human, plasma, oral, C24_d1, Minimum, 250 mg group: 750 mg on day 1 and 250 mg on days 2–5; 24 h postdose on day 1
quantity measured: concentration at 24 h (ng/mL)

>>> print(df.to_string())
                                   molecule      quantity_measured  endpoint_unit  value_measured
0  Cn1cnc(Cn2c(=O)[nH]/c(=N\c3cc4cn(C)nc4cc3Cl)n(Cc3cc(F)c(F)cc3F)c2=O)n1  concentration at 24 h          ng/mL           19400

====

assay type: in vivo, human; conditions: human, plasma, oral, AUC_d1, Median, 125 mg group: 375 mg on day 1 and 125 mg on days 2–5; day 1
quantity measured: AUC (µg·h/mL)

>>> df
                                   compound  quantity_measured  endpoint_unit  value_measured
0  Cn1cnc(Cn2c(=O)[nH]/c(=N\c3cc4cn(C)nc4cc3Cl)n(Cc3cc(F)c(F)cc3F)c2=O)n1 [ensitrelvir]                AUC        µg·h/mL             432

====

assay type: in vivo, human; details: human, plasma, oral, C24_d5, Mean, 250 mg group: 750 mg on day 1 and 250 mg on days 2–5; 24 h postdose on day 5
quantity measured: concentration at 24 h (ng/mL)

In [3]: df
Out[3]:
                                   compound      quantity_measured  value_measured
0  Cn1cnc(Cn2c(=O)[nH]/c(=N\c3cc4cn(C)nc4cc3Cl)n(Cc3cc(F)c(F)cc3F)c2=O)n1 [ensitrelvir]  concentration at 24 h           41800
